# study.target: BRD2 (Homo sapiens, UniProt P25440)
# Construct: HiBiT, is appended to the N-terminus of endogenous BRD2, BRD3, and BRD4; endogenous in cells
# Sequence (P25440 whole entry): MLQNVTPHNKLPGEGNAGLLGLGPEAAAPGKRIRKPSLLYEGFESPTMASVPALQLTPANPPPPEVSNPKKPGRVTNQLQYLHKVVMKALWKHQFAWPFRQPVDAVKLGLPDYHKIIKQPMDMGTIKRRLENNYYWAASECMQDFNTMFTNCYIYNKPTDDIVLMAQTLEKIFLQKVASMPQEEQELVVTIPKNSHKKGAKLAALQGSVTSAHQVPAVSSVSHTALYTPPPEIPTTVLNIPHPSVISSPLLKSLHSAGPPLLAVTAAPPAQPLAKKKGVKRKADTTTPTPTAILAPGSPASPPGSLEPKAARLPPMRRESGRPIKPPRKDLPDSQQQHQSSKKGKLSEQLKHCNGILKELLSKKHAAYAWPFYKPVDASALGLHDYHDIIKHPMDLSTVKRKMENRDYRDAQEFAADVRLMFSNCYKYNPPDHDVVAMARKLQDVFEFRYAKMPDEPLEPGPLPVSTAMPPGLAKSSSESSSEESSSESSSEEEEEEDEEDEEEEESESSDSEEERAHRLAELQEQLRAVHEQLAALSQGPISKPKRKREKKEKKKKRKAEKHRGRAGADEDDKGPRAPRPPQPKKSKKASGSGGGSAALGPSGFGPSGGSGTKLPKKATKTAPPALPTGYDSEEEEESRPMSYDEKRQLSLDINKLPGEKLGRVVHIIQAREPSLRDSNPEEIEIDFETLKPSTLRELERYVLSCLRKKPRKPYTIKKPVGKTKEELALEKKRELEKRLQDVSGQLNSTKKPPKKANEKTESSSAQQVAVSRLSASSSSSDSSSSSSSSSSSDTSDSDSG
# assay.explanation: Western blot dose-response degradation in HEK293 cells
# Assay type: cell-based
# setup.conditions: 6 h, mean ± S.E.M. of three experiments, values marked b mean ± S.D. of two
# Procedure: HEK293 cells were obtained from ATCC. HEK293 was cultured in DMEM supplemented with 10% (v/v) fetal bovine serum (FBS), 1% […] and 1% (v/v) penicillin/streptomycin (pen/strep) at 37 °C, 5% CO2, and 95% humidity. […] Protein concentration was determined using the BCA assay. […] All Western blots were analyzed for band intensities using Image Lab (Bio-Rad). The data extracted from these blots were then plotted and analyzed using Prism (v. 10.2.2, GraphPad). […]
measurement.type: DC50 (nM)
Lab book: enter the figure in nM, no units written.

Worked set:
molecule: Cc1ncsc1-c1ccc(CNC(=O)[C@@H]2C[C@@H](O)CN2C(=O)[C@@H](NC(=O)COCC(C)(COCCOCCOCCNc2cc3c(cc2F)C(=O)N(C2CCC(=O)NC2=O)C3=O)COCCOCCOCCOC(=O)C[C@@H]2N=C(c3ccc(Cl)cc3)c3c(sc(C)c3C)-n3c(C)nnc32)C(C)(C)C)cc1 (mixture of isomers) [AB3063 (26)]
DC50 / nM: 14
--
molecule: Cc1ncsc1-c1ccc(CNC(=O)[C@@H]2C[C@@H](O)CN2C(=O)[C@@H](NC(=O)COCC(C)(COCCOCCOCCNc2cc3c(cc2F)C(=O)N(C2CCC(=O)NC2=O)C3=O)COCCOCCOC(=O)C[C@@H]2N=C(c3ccc(Cl)cc3)c3c(sc(C)c3C)-n3c(C)nnc32)C(C)(C)C)cc1 (mixture of isomers) [AB3065 (28)]
DC50 / nM: 21
--
molecule: Cc1ncsc1-c1ccc(CNC(=O)[C@@H]2C[C@@H](O)CN2C(=O)[C@@H](NC(=O)COCC(C)(COCCOCCNc2cc3c(cc2F)C(=O)N(C2CCC(=O)NC2=O)C3=O)COCCOCCOCCOC(=O)C[C@@H]2N=C(c3ccc(Cl)cc3)c3c(sc(C)c3C)-n3c(C)nnc32)C(C)(C)C)cc1 (mixture of isomers) [AB3126 (29)]
DC50 / nM: 33

INPUT: Give the reported DC50 for Cc1ncsc1-c1ccc(CNC(=O)[C@@H]2C[C@@H](O)CN2C(=O)[C@@H](NC(=O)COCC(C)(COCCOCCOCCNc2cccc3c2C(=O)N(C2CCC(=O)NC2=O)C3=O)COCCOCCOCCOC(=O)C[C@@H]2N=C(c3ccc(Cl)cc3)c3c(sc(C)c3C)-n3c(C)nnc32)C(C)(C)C)cc1 (mixture of isomers) [AB3062 (23)] (system: BRD2 (Homo sapiens, UniProt P25440)).
OUTPUT: 58

INPUT: Also Cc1ncsc1-c1ccc([C@H](C)NC(=O)[C@@H]2C[C@@H](O)CN2C(=O)[C@@H](NC(=O)COCC(C)(COCCOCCOCCNc2cccc3c2C(=O)N(C2CCC(=O)NC2=O)C3=O)COCCOCCOCCOC(=O)C[C@@H]2N=C(c3ccc(Cl)cc3)c3c(sc(C)c3C)-n3c(C)nnc32)C(C)(C)C)cc1 (mixture of isomers) [AB3066 (24)] , if possible.
OUTPUT: 43

INPUT: Also Cc1ncsc1-c1ccc(CNC(=O)[C@@H]2C[C@@H](O)CN2C(=O)[C@@H](NC(=O)COCC(C)(COCCOCCNc2cc3c(cc2F)C(=O)N(C2CCC(=O)NC2=O)C3=O)COCCOCCOC(=O)C[C@@H]2N=C(c3ccc(Cl)cc3)c3c(sc(C)c3C)-n3c(C)nnc32)C(C)(C)C)cc1 (mixture of isomers) [AB3125 (30)] , if possible.
OUTPUT: 19
